Hello, the source for this data is patent US20050261290A1, in case you need it.

target: human 11b-hsd-1 (Homo sapiens); assay: Inhibition constant Ki of human 11b-hsd-1 (3H-cortisone to 3H-cortisol conversion, HPLC); assay type: biochemical; settings: apparent Ki; read-out: Ki app
Sequence (P28845 whole entry): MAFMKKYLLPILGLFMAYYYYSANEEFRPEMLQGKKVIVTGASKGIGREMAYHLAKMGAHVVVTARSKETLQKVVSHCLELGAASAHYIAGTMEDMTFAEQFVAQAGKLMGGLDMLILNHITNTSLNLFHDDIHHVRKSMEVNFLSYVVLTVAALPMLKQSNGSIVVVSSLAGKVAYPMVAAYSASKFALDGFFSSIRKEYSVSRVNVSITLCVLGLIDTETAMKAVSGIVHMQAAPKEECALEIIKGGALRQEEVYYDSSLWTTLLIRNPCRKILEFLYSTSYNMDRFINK
pKi: −log10 of the molar value.
Values of pKi greater than or equal to 8 map to met; values below map to not met.

{"MOLECULE": "CC(C)CN1CCC[C@@H]1C(=O)NCc1ccccc1Cl", "GROUP": "met"}
{"MOLECULE": "O=C(NC1C2CC3CC(C2)CC1C3)[C@@H]1C[C@H](Oc2cc(F)ccc2F)CN1 (stereo partly drawn)", "GROUP": "met"}
{"MOLECULE": "Cc1cc(C)cc(O[C@@H]2CN[C@H](C(=O)NC3C4CC5CC(C4)CC3C5)C2)c1 (stereo partly drawn)", "GROUP": "met"}
{"MOLECULE": "O=C(NCc1ccccc1Cl)[C@H]1CCCN1CCc1ccccc1", "GROUP": "not met"}
{"MOLECULE": "O=C(NC1C2CC3CC(C2)CC1C3)[C@@H]1C[C@H](Oc2ccc(F)c(F)c2F)CN1 (stereo partly drawn)", "GROUP": "met"}
{"MOLECULE": "CCC1CCCCN1C(=O)C1CCCCN1Cc1ccc(Cl)cc1 (stereo not drawn)", "GROUP": "not met"}
{"MOLECULE": "CCc1ccc(O[C@@H]2CN[C@H](C(=O)NC3C4CC5CC(C4)CC3C5)C2)c(OC)c1 (stereo partly drawn)", "GROUP": "met"}
{"MOLECULE": "Cc1cc(F)ccc1O[C@@H]1CN[C@H](C(=O)NC2C3CC4CC(C3)CC2C4)C1 (stereo partly drawn)", "GROUP": "met"}
{"MOLECULE": "O=C(NC1C2CC3CC(C2)CC1C3)[C@@H]1C[C@H](Oc2cccc(C(F)(F)F)c2)CN1 (stereo partly drawn)", "GROUP": "met"}
{"MOLECULE": "CN(C(=O)[C@H]1CSCN1Cc1ccc(Cl)cc1)C1CCCCC1", "GROUP": "not met"}
{"MOLECULE": "CCCN1CCOC[C@@H]1C(=O)NC1CCCCC1", "GROUP": "not met"}
{"MOLECULE": "Cc1cc(Cl)ccc1O[C@@H]1CN[C@H](C(=O)NC2C3CC4CC(C3)CC2C4)C1 (stereo partly drawn)", "GROUP": "met"}
